Reference source: patent US9630958B2

measured.target: PI3 Kinase alpha (p110 alpha/p85 alpha) (Homo sapiens)
Sequence (P42336 whole entry): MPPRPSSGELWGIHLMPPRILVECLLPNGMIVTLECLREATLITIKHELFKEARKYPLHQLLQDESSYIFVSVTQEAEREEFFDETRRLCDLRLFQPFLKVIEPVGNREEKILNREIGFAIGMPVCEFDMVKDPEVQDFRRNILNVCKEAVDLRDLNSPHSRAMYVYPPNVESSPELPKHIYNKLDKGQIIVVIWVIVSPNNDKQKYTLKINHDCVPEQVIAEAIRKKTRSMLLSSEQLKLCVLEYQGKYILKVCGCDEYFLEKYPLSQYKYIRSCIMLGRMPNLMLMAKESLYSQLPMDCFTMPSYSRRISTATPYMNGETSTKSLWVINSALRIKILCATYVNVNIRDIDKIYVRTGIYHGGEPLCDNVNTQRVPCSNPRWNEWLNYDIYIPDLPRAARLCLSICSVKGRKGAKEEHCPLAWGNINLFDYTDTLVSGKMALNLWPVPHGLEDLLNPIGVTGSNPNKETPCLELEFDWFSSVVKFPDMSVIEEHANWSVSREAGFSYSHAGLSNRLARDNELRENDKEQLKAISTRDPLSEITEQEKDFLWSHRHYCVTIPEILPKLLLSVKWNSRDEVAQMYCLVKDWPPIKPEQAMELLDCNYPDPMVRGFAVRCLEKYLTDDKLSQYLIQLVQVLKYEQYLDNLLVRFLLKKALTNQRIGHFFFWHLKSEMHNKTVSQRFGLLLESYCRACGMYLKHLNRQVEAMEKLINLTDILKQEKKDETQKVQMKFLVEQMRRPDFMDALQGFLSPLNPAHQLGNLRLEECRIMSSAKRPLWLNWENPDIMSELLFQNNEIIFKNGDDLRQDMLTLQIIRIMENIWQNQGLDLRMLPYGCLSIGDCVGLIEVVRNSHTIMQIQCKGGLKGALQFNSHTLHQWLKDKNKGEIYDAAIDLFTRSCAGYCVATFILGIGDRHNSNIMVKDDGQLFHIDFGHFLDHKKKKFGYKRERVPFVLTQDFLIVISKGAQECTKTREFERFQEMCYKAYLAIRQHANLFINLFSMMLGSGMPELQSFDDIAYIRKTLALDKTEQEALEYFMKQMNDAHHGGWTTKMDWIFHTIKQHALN
Sequence (P27986 whole entry partner): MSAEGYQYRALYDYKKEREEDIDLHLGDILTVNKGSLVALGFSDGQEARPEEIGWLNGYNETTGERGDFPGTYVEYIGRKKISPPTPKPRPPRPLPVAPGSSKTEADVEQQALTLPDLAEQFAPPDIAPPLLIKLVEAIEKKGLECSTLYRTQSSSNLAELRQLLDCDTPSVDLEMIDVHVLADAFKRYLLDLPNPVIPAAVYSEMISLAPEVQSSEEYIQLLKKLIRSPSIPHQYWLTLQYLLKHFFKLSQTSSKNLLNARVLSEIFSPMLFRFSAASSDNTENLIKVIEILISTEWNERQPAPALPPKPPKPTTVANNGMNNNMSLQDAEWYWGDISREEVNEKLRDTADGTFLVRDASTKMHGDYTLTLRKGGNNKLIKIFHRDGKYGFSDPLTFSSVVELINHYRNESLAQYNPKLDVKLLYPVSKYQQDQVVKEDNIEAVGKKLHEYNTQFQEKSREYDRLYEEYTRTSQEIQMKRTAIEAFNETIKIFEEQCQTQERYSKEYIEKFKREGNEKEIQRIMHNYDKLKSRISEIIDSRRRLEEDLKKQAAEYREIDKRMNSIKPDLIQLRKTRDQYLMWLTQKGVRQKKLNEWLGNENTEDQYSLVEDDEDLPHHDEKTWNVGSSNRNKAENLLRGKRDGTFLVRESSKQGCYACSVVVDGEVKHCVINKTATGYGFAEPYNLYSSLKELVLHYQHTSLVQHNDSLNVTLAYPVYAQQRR
protocol.summary: PI3K TR-FRET assay (Transcreener ADP2)
measurement.conditions: PI3K alpha, 1 μM ATP, 50 μM PIP2
# key: entry, value: IC50

Known results for compounds:
compound="C[C@H]1COCCN1c1nc(OC2CCC(C(=O)N(C)C)CC2)nc(-c2ccc3[nH]ccc3c2)n1 (stereo partly shown) [Compound 10141]" endpoint=IC50 reported_value="> 10 µM"
compound="CN(C)C(=O)Cc1cccc(Oc2nc(-c3ccc(N)nc3)nc(N3CCOCC3)n2)c1 [Compound 10184]" endpoint=IC50 reported_value="< 1 µM"
compound="NC(=O)c1ccc(Oc2nc(-c3cnc(N)s3)nc(N3CCOCC3)n2)cc1 [Compound 10201]" endpoint=IC50 reported_value="< 1 µM"

Now for another entry.
Enquiry: Suppose we examine the compound CN(C)C(=O)N1CCC(Oc2nc(-c3ccc(N)nc3)nc(N3CCOCC3)n2)CC1 [Compound 10021] ; what IC50 value has been reported?
Return: < 1 µM
